# Phage binding ELISA signal, Anti-PSMA Fab annotations
target: T1, PSMA Fab (006 PSMA Fab); assay: phage ELISA; biotinylated PSMA Fab on neutravidin plate, clonal phage supernatant, anti-M13 HRP detection;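 also: wells preincubated with PSMA antigen in blocking buffer or with blocking buffer only before clonal phage were added for a short incubation, then bound phage detected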
T1 construct: In the phage ELISA the PSMA Fab was biotinylated and captured on neutravidin coated plates; also called Anti-PSMA Fab; anti-PSMA Fab
Where no end group is shown, it is not given here.
Give the figure only, with no unit attached.

Worked examples follow.
>>> value_reported("WDNWCTPSWMCSTA [Phage-2821 (Peptide-180 library clone)]")
0.488
>>> value_reported("YHKWCTPEWMCVFD [Phage-2825 (Peptide-180 library clone)]")
0.474
>>> value_reported("DVKWCTPRWMCELS [Phage-2829 (Peptide-180 library clone)]")
0.457
>>> value_reported("GEKWCSPAWMCEWL [Phage-2828 (Peptide-180 library clone)]")
0.459
>>> value_reported("AFPSCIPEWMCSGM [Phage-2831 (Peptide-180 library clone)]")
0.45

Q: Phage binding ELISA signal, Anti-PSMA Fab lookup needed for NTNWCTPPWMCEGL [Phage-2834 (Peptide-180 library clone)] , thanks.
A: 0.442

Q: Tell me the measured Phage binding ELISA signal, Anti-PSMA Fab of GLPWCVPQWMCVVS [Phage-2824 (Peptide-180 library clone)] , please.
A: 0.482

Q: Which Phage binding ELISA signal, Anti-PSMA Fab reading was recorded for the binder IDKWCKPVWMCADN (cysteine pairing not given here; also: fused to pIII, displayed on bacteriophage) [Phage-2819 (Peptide-180 library clone)] ?
A: 0.5

Q: I have this binder here, SSNWCTPAWMCVTS [Phage-2826 (Peptide-180 library clone)] , and I need its recorded Phage binding ELISA signal, Anti-PSMA Fab.
A: 0.47
